# Experimental System: TsPYK (Thermoanaerobacterium saccharolyticum, UniProt I3VV25)
# Construct: gene Tsac_1363; full length with extra-C domain; N-terminal 6XHis tag kept (6XHis-MBP-SUMO tag in later expression); expressed in E. coli FF50 / QTF60 (pykA pykF deleted); homotetramer
# Sequence (I3VV25 1-583): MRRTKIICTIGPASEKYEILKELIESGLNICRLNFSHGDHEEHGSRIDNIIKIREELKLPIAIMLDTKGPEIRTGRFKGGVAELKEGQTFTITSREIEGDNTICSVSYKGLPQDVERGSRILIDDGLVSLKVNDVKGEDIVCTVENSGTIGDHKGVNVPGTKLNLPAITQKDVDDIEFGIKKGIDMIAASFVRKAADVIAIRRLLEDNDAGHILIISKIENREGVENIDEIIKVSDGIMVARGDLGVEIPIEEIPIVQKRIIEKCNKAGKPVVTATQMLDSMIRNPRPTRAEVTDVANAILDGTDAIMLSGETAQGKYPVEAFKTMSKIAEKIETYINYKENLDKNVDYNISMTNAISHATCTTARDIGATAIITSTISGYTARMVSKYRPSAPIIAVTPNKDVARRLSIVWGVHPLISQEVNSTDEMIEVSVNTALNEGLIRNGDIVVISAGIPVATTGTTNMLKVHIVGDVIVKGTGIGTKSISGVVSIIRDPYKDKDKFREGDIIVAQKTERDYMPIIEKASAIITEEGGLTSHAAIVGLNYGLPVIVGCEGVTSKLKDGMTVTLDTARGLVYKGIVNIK
# Experiment: Kapp–PEP versus effector concentration, lactate dehydrogenase coupled assay, linkage fit
# Format: biochemical
# Run Parameters: allosteric activator; Kix in absence of PEP; 10 mM ADP, 15 mM MgCl2, 30 °C; ± sign lost in table text; read-out: Kix-AMP
Recorded Metric: Kd

> print(dat)
                                   compound  result
1  Nc1ncnc2c1ncn2[C@@H]1O[C@H](COP(=O)(O)O)[C@@H](O)[C@H]1O [AMP]   90 µM
